Source of measurements: ChEMBL document CHEMBL4699454

- ASSAY_INFO: Aqueous solubility of the compound in distilled de-ionized water
- Assay type: physicochemical
EXPERIMENTAL_READOUT: solubility

COMPOUND	RESULT
Cl.Cl.NCCCOc1cc2ccccc2cc1C(=O)Nc1ccc(Cl)cc1OC(=O)c1cc2ccccc2cc1OCCN	> 100 mg/mL
Cl.NCCCOc1cc2ccccc2cc1C(=O)NCCOc1cc2ccccc2cc1C(=O)Nc1ccc(Cl)cc1O	< 0.5 mg/mL
